Experimental protocol: Body weight change in ob/ob mouse
Assay type: in vivo
Study conditions: ob/ob mice; 5 or 10 mg/kg ip every 3 days, 4 doses; % change in body weight vs study day 0, up to 30 days
Observed property: % BW Nader (%)
Answers are plain numbers, in %.

| Compound | % BW Nader / % |
| --- | --- |
| COC(=O)CC[C@@H](C)[C@H]1CCC2C3C[C@@H](O)[C@H]4C[C@H](NCCNC(C)C)CC[C@]4(C)C3CC[C@@]21C (stereo partly shown) [MSI-2514] | −1.5 |
| COC(=O)CC[C@@H](C)[C@H]1CCC2C3C(CC[C@@]21C)[C@@]1(C)CC[C@H](NCCNC(C)C)C[C@H]1C[C@H]3O (stereo partly shown) [MSI-2520] | 0.5 |
| COC(=O)CC[C@@H](C)[C@H]1CCC2C3C(CC[C@@]21C)[C@@]1(C)CC[C@H](NCCNC(C)C)C[C@@H]1C[C@H]3NC(C)=O (stereo partly shown) [MSI-2532] | −0.8 |

Now turn to the next compound.
# % BW Nader of COC(=O)CC[C@@H](C)[C@H]1CCC2C3C(CC[C@@]21C)[C@@]1(C)CC[C@@H](NCCN2CCCCC2)C[C@H]1C[C@H]3O (stereo partly shown) [MSI-2507] = 1.4
